Target: T1, RANK-Fc carrier-free (R&D Systems) (human, UniProt Q9Y6Q6 30-212)
T1 construct: Bought from R&D Systems; Immobilized on the sensor chip for SPR and used in solution for NMR; also called hRANK; RANK-Fc CF; not shown: Fc part of the bought fusion protein
T1 sequence (looked up): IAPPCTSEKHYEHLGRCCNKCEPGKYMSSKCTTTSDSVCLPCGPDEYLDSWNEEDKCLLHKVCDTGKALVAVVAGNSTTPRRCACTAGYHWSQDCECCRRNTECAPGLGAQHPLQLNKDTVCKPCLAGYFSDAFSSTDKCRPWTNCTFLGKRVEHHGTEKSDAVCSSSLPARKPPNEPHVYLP
Assay: SPR (BIAcore 3000), RANK-Fc immobilized, single cycle kinetics, 1:1 Langmuir model
Answer each item with its documented pKd.
// returns pKd (minus log10 of molar concentration), number only

Problem: pKd for ELASYIIITQLG (Synthetic designed peptide; the SPR text mentions no pegylation; also called polypeptide Pep1) [Pep1] ?
Solution: 4.69

Problem: pKd for NVLKLCSGE (Pegylated forms (N-(PEG)5, N-(PEG)8) were tested only in gene expression assays and in vivo; also called polypeptide Pep8) [Pep8] ?
Solution: 4.98
